# measurementTarget: Orn/Lys/Arg decarboxylase (A0A0H2XII6) (Staphylococcus aureus)
# Sequence (A0A0H2XII6 entry or part of it): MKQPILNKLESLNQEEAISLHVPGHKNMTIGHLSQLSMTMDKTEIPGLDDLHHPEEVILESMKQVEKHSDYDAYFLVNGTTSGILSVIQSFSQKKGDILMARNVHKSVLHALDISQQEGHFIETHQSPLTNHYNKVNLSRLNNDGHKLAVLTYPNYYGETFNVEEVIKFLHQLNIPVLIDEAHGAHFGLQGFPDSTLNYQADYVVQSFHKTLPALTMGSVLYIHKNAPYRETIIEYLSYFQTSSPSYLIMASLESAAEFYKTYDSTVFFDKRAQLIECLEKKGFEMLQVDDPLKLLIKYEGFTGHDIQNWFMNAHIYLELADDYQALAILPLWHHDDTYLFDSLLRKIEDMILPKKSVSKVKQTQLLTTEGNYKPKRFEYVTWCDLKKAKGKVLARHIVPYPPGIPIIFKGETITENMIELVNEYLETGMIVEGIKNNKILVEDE
# assayComment: LC-MS/MS quantification of cadaverine formed by overexpressed enzyme; also competitive PL2 profiling in cells
measureName: IC50 (µM)

[[record]]
molsmiles = "NNCCc1ccccc1"
measurementtarget = "Orn/Lys/Arg decarboxylase (A0A0H2XII6) (Staphylococcus aureus)"
observed = 53.1


* * *

# measurementTarget: A0A0H2XHJ5 (cysteine desulfurase, sufS) (Staphylococcus aureus)
# Sequence (A0A0H2XHJ5 entry or part of it): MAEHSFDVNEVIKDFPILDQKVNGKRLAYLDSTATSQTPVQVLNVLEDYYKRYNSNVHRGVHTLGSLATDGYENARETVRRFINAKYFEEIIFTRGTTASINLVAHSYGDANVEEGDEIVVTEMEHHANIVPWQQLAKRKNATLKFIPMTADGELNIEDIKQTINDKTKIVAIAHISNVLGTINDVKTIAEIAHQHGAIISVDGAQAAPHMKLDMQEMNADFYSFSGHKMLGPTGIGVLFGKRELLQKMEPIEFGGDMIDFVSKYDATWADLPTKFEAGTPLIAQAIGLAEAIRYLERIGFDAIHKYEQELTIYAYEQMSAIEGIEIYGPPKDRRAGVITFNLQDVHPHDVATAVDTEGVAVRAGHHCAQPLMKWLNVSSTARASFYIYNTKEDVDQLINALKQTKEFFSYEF
# Sequence (A0A0H2XJC0 entry or part of it, further chain): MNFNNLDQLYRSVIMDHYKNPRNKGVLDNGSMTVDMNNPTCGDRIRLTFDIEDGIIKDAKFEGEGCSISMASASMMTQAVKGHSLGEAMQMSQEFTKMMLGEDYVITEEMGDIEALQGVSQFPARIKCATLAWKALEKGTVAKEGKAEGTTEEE
measureName: IC50

[[record]]
compound = "NNCCc1ccccc1 [phenelzine]"
measurename = "IC50"
observed = "14.7 µM"

